# Target: Paired box protein Pax-8 (Homo sapiens, UniProt Q06710)
# Sequence (Q06710 whole entry): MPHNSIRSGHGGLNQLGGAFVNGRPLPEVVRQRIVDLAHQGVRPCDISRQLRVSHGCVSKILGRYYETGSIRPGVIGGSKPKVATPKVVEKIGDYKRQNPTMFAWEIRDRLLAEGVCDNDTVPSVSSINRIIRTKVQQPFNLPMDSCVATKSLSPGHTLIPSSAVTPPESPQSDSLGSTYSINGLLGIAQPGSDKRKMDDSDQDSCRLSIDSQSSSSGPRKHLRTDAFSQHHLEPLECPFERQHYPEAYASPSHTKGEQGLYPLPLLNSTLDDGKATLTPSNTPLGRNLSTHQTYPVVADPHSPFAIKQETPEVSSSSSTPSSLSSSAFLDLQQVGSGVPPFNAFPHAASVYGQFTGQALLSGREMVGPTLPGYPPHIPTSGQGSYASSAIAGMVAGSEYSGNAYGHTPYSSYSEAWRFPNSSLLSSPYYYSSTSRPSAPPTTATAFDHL
# Protocol details: PAX8 transcriptional activity inhibition in RMG-I – RMG-I cells, luciferase, cherry-pick, dose response (AID 687027);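 further: luciferase reporter driven by Pax8 target thyroperoxidase promoter measured by SteadyGlo luminescence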
# Type: functional, cell-based
Where a name gives a salt, the structure may show the parent alone. Active and inactive are the calls of the source. How the calls were made is not given here.
Observable: AC50

Task: Fill in the blank: the reported AC50 of `C[C@@H]1CCCCO[C@H](CN(C)Cc2ccc(Cl)c(Cl)c2)[C@H](C)CN([C@@H](C)CO)C(=O)c2cc(NC(=O)Nc3ccc(F)cc3)ccc2O1` is ____.
Output: 11.3 µM (active)

Task: Query (compound): OC(CNCC(c1ccc(Cl)cc1Cl)c1c[nH]c2ccccc12)c1ccccc1 (stereo not drawn) ; field requested: AC50
Output: 11.2 µM (active)

Task: Form field: reported AC50 of `C[C@H](O)C#Cc1ccc2c(c1)O[C@@H](CN(C)Cc1ccc(-c3ccccc3)cc1)[C@H](C)CN([C@@H](C)CO)S2(=O)=O`
Output: 6.73 µM (active)

Task: Fill blank: measured AC50 of the compound CC[C@]1(O)C[C@@H]2CN(CCc3c([nH]c4ccccc34)[C@@](C(=O)OC)(c3cc4c(cc3OC)N(C)[C@H]3[C@@](O)(C(=O)OC)[C@H](OC(C)=O)[C@]5(CC)C=CCN6CC[C@]43[C@@H]65)C2)C1 [VINBLASTINE SULFATE] is ____.
Output: < 0.26 µM (active)

Task: Please report the recorded AC50 for `Cc1ccc(Cl)cc1N=C1C=C(NS(=O)(=O)c2cccs2)c2ccccc2C1=O` .
Output: 4.82 µM (active)

Task: I'd like to know its AC50. The compound in question is `COc1ccc(-c2cnc3c(NC=O)cc(-c4ccccc4OC)cn23)cc1OC`
Output: 1.55 µM (active)

Task: // returns reported AC50 for input `C[C@H](CO)N1C[C@H](C)[C@H](CN(C)Cc2ccc(C(F)(F)F)cc2)OCCCC[C@H](C)Oc2ccc(NC(=O)Cc3ccccc3)cc2C1=O`
Output: 6.42 µM (active)

Task: AC50 for `Cc1noc(C)c1S(=O)(=O)N(C)C[C@@H]1OCCCC[C@H](C)Oc2ccc(NS(=O)(=O)c3ccc(Cl)cc3)cc2C(=O)N([C@H](C)CO)C[C@@H]1C` ?
Output: 10.4 µM (active)
